Here the recorded Percent inhibition of the acid induced-hASIC1a currents, 30 nM antibody (Patch Clamp) is given for each entry.
# target under test: T1, hASIC1a on CHO-K1 cells stably expressing hASIC1a (human, UniProt P78348 1-528)
# T1 sequence (looked up): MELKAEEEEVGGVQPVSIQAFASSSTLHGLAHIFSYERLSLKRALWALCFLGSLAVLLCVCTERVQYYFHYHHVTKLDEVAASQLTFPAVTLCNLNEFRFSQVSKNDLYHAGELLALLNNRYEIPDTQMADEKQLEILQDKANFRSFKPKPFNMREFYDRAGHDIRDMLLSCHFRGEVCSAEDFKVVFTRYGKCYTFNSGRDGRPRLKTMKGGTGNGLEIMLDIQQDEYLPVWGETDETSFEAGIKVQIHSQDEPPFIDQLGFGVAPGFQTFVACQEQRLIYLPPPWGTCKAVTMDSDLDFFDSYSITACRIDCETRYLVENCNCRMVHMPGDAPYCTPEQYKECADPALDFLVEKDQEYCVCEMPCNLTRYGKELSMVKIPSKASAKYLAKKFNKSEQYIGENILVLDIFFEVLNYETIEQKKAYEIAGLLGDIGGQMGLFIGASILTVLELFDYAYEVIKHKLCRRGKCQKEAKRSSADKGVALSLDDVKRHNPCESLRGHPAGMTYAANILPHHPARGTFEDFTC
# method summary: cell-based or functional assay
Quick note: give the figure in %, leave out the unit.

Sample answers from the record:
binder	result units	result
ASC06-03-IgG1 (antibody, V domains shown, Full length IgG1) VH: QVQLQQSGGGLVQPGGSLRLSCAASGFTFSSYAMSWVRQAPGKGLEWVSAISGSGGSTYYADSVKGRFTISRDNSKNTLYLQMNSLRAEDTAVYYCAKDSFYGRAKGSWGQGTLVTVSS VL: QSALTQPASVSGSPGQSITISCTGTSSDVGAYNYVSWYQQQPGKAPKLMIYGVSNRPSGVSNRFSGSKSGNAASLTISGLQAEDEADYYCSSYTSSSTYVFGTGTKLTVLG	%	79.4
ASC06-02-IgG1 (antibody, V domains shown, Full length IgG1) VH: QVQLQQSGGGLVQPGGSLRLSCAASGFTFSSYAMSWVRQAPGKGLEWVSAISGSGGSTYYADSVKGRFTISRDNSKNTLYLQMNSLRAEDTAVYYCAKDSFFGRAKGSWGQGTLVTVSS VL: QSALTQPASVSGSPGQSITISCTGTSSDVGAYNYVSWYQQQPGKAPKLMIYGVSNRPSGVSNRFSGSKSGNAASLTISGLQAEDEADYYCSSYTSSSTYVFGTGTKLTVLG	%	94.6
ASC06-01-IgG1 (antibody, V domains shown, Full length IgG1) VH: QVQLQQSGGGLVQPGGSLRLSCAASGFTFSSYAMSWVRQAPGKGLEWVSAISGSGGSTYYADSVKGRFTISRDNSKNTLYLQMNSLRAEDTAVYYCAKDSYFGYSKGDWGQGTLVTVSS VL: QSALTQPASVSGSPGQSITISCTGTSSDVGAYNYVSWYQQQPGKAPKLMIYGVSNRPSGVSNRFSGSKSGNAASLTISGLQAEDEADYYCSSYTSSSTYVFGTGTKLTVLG	%	20

Turning to the following binder.
Q: Value lookup for Percent inhibition of the acid induced-hASIC1a currents, 30 nM antibody (Patch Clamp); key = ASC06-IgG1 (antibody, V domains shown, Tested as full length IgG1; also called WT antibody ASC06-IgG1; parental ASC06-IgG1 antibody) VH: QVQLQQSGGGLVQPGGSLRLSCAASGFTFSSYAMSWVRQAPGKGLEWVSAISGSGGSTYYADSVKGRFTISRDNSKNTLYLQMNSLRAEDTAVYYCAKDSFYGYSKGDWGQGTLVTVSS VL: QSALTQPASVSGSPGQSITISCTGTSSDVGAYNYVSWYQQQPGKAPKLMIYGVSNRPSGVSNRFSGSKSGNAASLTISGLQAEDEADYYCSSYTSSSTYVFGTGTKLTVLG
A: 35.5
